# system_under_test: UniProt P29274
# Sequence (P29274 whole entry): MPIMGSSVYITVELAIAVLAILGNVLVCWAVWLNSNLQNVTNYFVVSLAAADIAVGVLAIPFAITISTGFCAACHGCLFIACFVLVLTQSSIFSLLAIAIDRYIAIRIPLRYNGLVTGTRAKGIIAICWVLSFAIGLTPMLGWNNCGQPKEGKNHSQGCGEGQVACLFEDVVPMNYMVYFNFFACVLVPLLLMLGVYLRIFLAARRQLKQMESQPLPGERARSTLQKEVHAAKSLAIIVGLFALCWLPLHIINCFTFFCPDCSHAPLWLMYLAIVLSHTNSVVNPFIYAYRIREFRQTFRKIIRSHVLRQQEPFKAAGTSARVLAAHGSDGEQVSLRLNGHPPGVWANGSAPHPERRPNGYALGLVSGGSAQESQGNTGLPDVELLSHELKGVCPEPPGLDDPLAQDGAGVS
# experiment_summary: Inhibition of cAMP production in HEK cells
# Format: cell-based
# run_parameters: IC50 (nM) (3 nM NECA as agonist, 0.1% BSA), HEK-293 cells with A2A receptor, 3 nM NECA as agonist, 0.1% BSA
measurement_kind: IC50 (nM)
# number only, unit nM dropped from output

Nc1nc2c(sc(=O)n2CCN2CCN(c3ccc(OCC(O)C(F)(F)F)cc3F)CC2)c2nc(-c3ccco3)nn12 (stereo not shown)    1.1
C[S@+]([O-])CCOc1ccc(N2CCN(CCn3c(=O)sc4c3nc(N)n3nc(-c5ccco5)nc43)CC2)c(F)c1 (single isomer, unassigned)    0.4
Nc1nc2c(sc(=O)n2CCN2CCN(c3ccc(S(N)(=O)=O)cc3)CC2)c2nc(-c3ccco3)nn12    1.7
Nc1nc2c(sc(=O)n2CCN2CCN(c3ccc(OC4CCNC4)cc3F)CC2)c2nc(-c3ccco3)nn12 (stereo not shown)    0.1

Query string: Fill in: IC50 of Nc1nc2c(sc(=O)n2CCN2CCN(c3ccc(O[C@H]4CNC[C@H]4F)cc3F)CC2)c2nc(-c3ccco3)nn12 is ___
Result string: 0.5

Query string: Fill in: IC50 of Cn1cnc(COc2ccc(N3CCN(CCn4c(=O)sc5c4nc(N)n4nc(-c6ccco6)nc54)CC3)c(F)c2)n1 is ___
Result string: 0.6

Query string: Fill in: IC50 of Nc1nc2c(sc(=O)n2CCN2CCN(c3cc(OCc4nnn[nH]4)c(F)cc3F)CC2)c2nc(-c3ccco3)nn12 is ___
Result string: 0.8
